Collected ELISA HSA (RLU) values appear next to each entry.
molecular target: T1, human serum albumin (human, UniProt P02768 25-609); assay: ELISA, bacterial lysate on plate-bound antigen, luminescence
T1 construct: Negative control antigen of the screening ELISA; also called HSA
T1 sequence (P02768 25-609 limits assumed): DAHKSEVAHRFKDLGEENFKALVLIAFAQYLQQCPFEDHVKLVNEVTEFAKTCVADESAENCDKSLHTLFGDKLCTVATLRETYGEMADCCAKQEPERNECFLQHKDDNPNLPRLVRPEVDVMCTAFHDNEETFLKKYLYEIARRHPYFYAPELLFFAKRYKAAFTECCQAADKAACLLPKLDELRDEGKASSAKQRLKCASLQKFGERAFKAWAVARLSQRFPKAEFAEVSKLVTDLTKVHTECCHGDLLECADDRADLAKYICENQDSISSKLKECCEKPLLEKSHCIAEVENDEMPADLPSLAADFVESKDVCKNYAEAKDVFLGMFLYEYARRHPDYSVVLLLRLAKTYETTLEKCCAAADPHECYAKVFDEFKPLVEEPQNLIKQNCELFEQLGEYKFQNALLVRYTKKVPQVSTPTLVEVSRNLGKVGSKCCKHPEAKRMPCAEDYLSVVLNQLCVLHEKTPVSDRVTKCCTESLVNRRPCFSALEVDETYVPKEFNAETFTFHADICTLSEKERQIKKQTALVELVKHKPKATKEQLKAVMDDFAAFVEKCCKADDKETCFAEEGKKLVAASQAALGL

binder	ELISA HSA (RLU)
ISOP120HR5P1H4 (designed binder, not shown: small tags and cut ends, FN3 domain (Centyrin); tested as E. coli lysate) LPAPKNLVVSRVTEDSARLSWTAPDAAFDSFDILYLEPYQEGEAIVLTVPGSERSYDLTGLKPGTEYLVTIYGVKGGYYSLPLSAIFTT	320
ISOP120BR5P1F2 (designed binder, not shown: small tags and cut ends, FN3 domain (Centyrin); tested as E. coli lysate) LPAPKNLVVSRVTEDSARLSWTFHPTFEGFDSFLIQYQESEKVGEAIVLTVPGSERSYDLTGLKPGTEYTVSIYGVKWYAGIGYPVSNPLSAIFTT	240
ISOP120BR5P1D9 (designed binder, not shown: small tags and cut ends, FN3 domain (Centyrin); tested as E. coli lysate) LPAPKNLVVSRVTEDSARLSWTINSHIFDSFLIQYQESEKVGEAIVLTVPGSERSYDLTGLKPGTEYTVSIYGVWGTKYWQAQSNPLSAIFTT	560
ISOP120FR5P1A6 (designed binder, not shown: small tags and cut ends, FN3 domain (Centyrin); tested as E. coli lysate) LPAPKNLVVSRVTEDSARLSWTAPDAAFDSFIIRYLEDISYGEAIVLTVPGSERSYDLTGLKPGTEYHVGIEGVKGGNVSFPLSAIFTT	320

Where do the numbers come from? From patent US20220259289A1.
